tested on: SW-620 colon; assay: NCI tumour cell line growth inhibition, 48 h
# key: entry, value: TGI

Previously resolved entries follow.
COc1ccc([C@H]2[C@H](C)C3=Nc4ccccc4CN32)cc1 : > 100 µM
O=C(O)C(C(C(=O)O)P(=O)(O)O)P(=O)(O)O (centres undefined) : > 100 µM
Brc1ccc2c(C3CN[C@@H](c4c[nH]c5cc(Br)ccc45)CN3)c[nH]c2c1 (some centres undefined) : 9.05 µM

# get_value(readout='TGI', item= CC[C@H](Nc1cc(C)nc(N)n1)c1nc2cccc(NCc3ccc(C(=O)NO)cc3)c2c(=O)n1-c1ccccc1 )
4.19 µM

# get_value(readout='TGI', item= O=C(OC1C=C=CS(=O)(=O)CC#C/C=C\1)c1cnc2ccccc2n1 (centres undefined) )
> 100 µM

# get_value(readout='TGI', item= Cc1ccc(-c2c(C#N)c(-c3ccccc3)c(C#N)c(=O)n2NS(=O)(=O)c2ccc(C)cc2)cc1 )
> 100 µM

# get_value(readout='TGI', item= CC1=C(/C=C/C(C)=C/C=C/C(C)=C/C=C/C=C(C)/C=C/C=C(C)/C=C/C=C(C)/C=C/C=C(\C)C(=O)O)C(C)(C)CCC1 )
> 100 µM

# get_value(readout='TGI', item= N#CC(C#N)=C(C(C#N)C#N)C(C#N)C#N )
> 100 µM

# get_value(readout='TGI', item= O=C1OC(c2cccc(C(F)(F)F)c2)(c2cccc(C(F)(F)F)c2)c2ccc3ccccc3c21 )
> 100 µM

* * *

tested on: HCC-2998 colon; assay: NCI tumour cell line growth inhibition, 48 h
Where a SMILES comes first, the peptide text is derived from it. Bridges are numbered along the chain shown (N, C = ends). [ ]: non-standard residue; d: D form. The star is where a group is joined. Cya = N[CH](CS(=O)(=O)O)C(=O)O; X49 = CC(C)CCCCCCCC(O)CC(=O)*; GABA = NCCCC(=O)O
# key: entry, value: TGI

CCOC(=O)C(CS)NC(=O)CCCCCCCC(=O)O (stereo not drawn) : > 100 µM
O=C(O)CCC(N=C(C(=NC(CCC(=O)O)C(=O)O)c1ccccc1)c1ccccc1)C(=O)O (stereo not drawn) : > 100 µM

Please turn your attention to the following entry.
# get_value(readout='TGI', item= CC(C)CCCCCCCC(O)CC(=O)NC(CS(=O)(=O)O)C(=O)NC(CC(C)C)C(=O)NCCCC(=O)NC(Cc1cnc[nH]1)C(=O)NC(C)C(=O)NC1C(=O)NC(C(C)O)C(=O)NC(Cc2cnc[nH]2)C(=O)NC(C)C(=O)NC(C(C)O)C(=O)OC1C (stereo not drawn) (X49-[Cya]L[GABA]HATTHAT; ester 6-C; configuration not given here) )
> 25 µM

* * *

test system: HCC-2998 colon
Outcome (select one): active, inactive

c1ccc(N2CCN(CN3CCN(c4ccccc4)C3)C2)cc1 : inactive
NC1CCCCC1N.O=NN1CCCCCC1(P(=O)([O-])[O-])P(=O)([O-])[O-].[Na+].[Pt+2] : inactive
COc1ccc(C2C(C#N)=C(N)Oc3c2sc2c(C)cccc32)cc1 (stereo not drawn) : inactive
Nc1nonc1-c1nc2cnccc2n1C1CCCCC1 : inactive
CC#CC#Cc1cccc(=O)o1 : inactive
O=C1C=CC(=O)C(c2cc(-c3ccc(Cl)cc3)nn2-c2ccccc2)=C1 : inactive

Can you look up the reported call for Cc1ccc2cc3c(N)c4c(C)ccc(C)c4nc3nc2c1 for me?
inactive

Can you look up the reported call for COc1ccc(/C(COc2ccc3c(c2)oc(=O)c2cc(OC)ccc23)=N/O)cc1 for me?
inactive

Can you look up the reported call for O=C(/C=C/c1cccc(O)c1)c1cccc(-n2cc(-c3ccc(Cl)cc3)[nH]c2=O)c1 for me?
inactive

Can you look up the reported call for O=C1C=C(Nc2ccc([N+](=O)[O-])cc2)c2ccccc2C1=O for me?
inactive

Can you look up the reported call for O=C1OC(c2cccc(C(F)(F)F)c2)(c2cccc(C(F)(F)F)c2)c2ccc3ccccc3c21 for me?
inactive

Can you look up the reported call for COC(=O)/C=C1/SC(=Nc2ccc(C(F)(F)F)cc2)N(CCc2c[nH]c3ccc(O)cc23)C1=O for me?
inactive

Can you look up the reported call for CCOC(=O)c1ccc2c(c1)c1c(C)c3cnccc3c(C)c1n2C for me?
active
